Ref: PubChem BioAssay (NCI)

# Test system: HOP-92 NSCLC
# PROCEDURE TEXT: NCI tumour cell line growth inhibition, 48 h
# TGI per entry

Example compounds with recorded TGI:
Given the compound COc1ccccc1/C=C/C1=NN(c2cccc(S(=O)(=O)O)c2)C2(C1)C(Cl)C(=O)N2c1nc2ccccc2s1 (stereo not drawn) , what is its reported TGI? > 95 µM

// lookup TGI for "CN(/N=C\c1ccnc2ccccc12)c1ccc([N+](=O)[O-])cc1" > 100 µM

Moving on to the next compound.
Name the recorded TGI for CC(C)C1NC(=O)CC(c2ccccc2)N(N=O)C1c1ccccc1 (stereo not drawn) . > 100 µM

###

# Tested on: OVCAR-4 ovarian
# PROCEDURE TEXT: NCI tumour cell line growth inhibition, 48 h
MEASUREMENT TYPE: TGI

Any idea what its TGI is? The compound is CCN(CC)CCCC(C)N/C(=C1\C(=O)NC(=O)\C1=C(/NC(C)CCCN(CC)CC)c1cccc(OC)c1)c1cccc(OC)c1 (configuration not stated) 2.2 µM

Next:
Look up TGI: "O=[N+]([O-])c1ccc(-n2nc3ccc4c(no[n+]4[O-])c3n2)cc1" > 100 µM

Need TGI, item "Cc1ccc2c(=O)cc(-c3ccc(C)s3)[nH]c2n1" > 100 µM
